Where do these numbers come from? They come from patent US20240109962A1.

Biological target: T1, human LILRB2 expressed on cells (293T-LILRB2, CHO-K1-LILRB2) (human, UniProt Q8N423 22-597)
T1 construct: whole, on cells; the cell line is named under assay; also called HEK293T-LILRB2
T1 sequence (Q8N423 22-597): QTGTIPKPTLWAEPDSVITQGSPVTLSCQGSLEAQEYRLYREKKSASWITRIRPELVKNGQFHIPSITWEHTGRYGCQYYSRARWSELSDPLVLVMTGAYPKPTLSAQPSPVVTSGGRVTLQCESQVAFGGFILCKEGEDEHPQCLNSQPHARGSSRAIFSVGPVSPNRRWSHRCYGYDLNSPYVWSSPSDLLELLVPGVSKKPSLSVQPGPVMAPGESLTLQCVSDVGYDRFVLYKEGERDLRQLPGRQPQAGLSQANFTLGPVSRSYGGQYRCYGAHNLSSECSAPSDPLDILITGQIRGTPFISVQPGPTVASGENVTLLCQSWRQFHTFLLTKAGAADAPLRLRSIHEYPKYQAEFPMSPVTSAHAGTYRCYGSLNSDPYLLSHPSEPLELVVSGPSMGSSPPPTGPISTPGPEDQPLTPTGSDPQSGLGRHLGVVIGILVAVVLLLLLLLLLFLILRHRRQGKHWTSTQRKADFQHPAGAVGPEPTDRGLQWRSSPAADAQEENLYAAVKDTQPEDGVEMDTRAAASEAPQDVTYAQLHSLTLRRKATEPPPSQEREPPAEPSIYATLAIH
Test: flow cytometry on 293T-LILRB2 cells, serial dilution, APC anti-human IgG; fit table under the graph
quantity-name: Bmax (RFU)
Give just the numeric value; RFU need not be written.

IN: Requested read-out: Bmax. Entry: Antibody h#2C1 (antibody, V domains shown, Humanized variant of 11B12) VH: EVQLVESGGGLVQPGGSLRLSCAVSGYSITSGYYWNWVRQAPGKGLEWVAYISYDGNNNYNPSLKNRFTISRDTSKNTFYLQMNSLRAEDTAVYYCAREESTMITTAWFAYWGQGTLVTVSS VL: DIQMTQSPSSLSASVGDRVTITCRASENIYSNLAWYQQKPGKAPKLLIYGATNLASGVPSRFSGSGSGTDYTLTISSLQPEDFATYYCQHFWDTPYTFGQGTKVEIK
OUT: 684000
